molecular target: Glutamate NMDA receptor; test: Ability to displace strychnine-insensitive [3H]glycine binding to N-methyl-D-aspartate glutamate receptor of rat cortical membranes.
value kind: Ki (nM)

- line notation: "Oc1nc2cc(Cl)cc(Cl)c2c(O)c1-c1ccccc1"
  units text: "nM"
  Ki: 57

(P) COc1ccc(-c2c(O)nc3cc(Cl)cc(Cl)c3c2O)cc1
(Q) Oc1ccc(-c2c(O)nc3cc(Cl)cc(Cl)c3c2O)cc1
Prompt: Parameter check: reported Ki is higher for which label, P or Q ? Use the label to indicate which entry you chose.
Completion: P
(P: 67 nM, Q: 13 nM)

---

target: Glutamate receptor ionotropic, NMDA 1 (Rattus norvegicus, UniProt P35439); test: Inhibition of [3H]-MK-801 binding to a N-methyl-D-aspartic acid(NMDA) receptor in glycine-sensitive rat cortical membranes.
value kind: IC50 (nM)

Solved cases below.
- line notation: "Cc1ccc(-c2c(O)nc3cc(Cl)cc(Cl)c3c2O)cc1"
  value kind: "IC50"
  experimental value: 550
- line notation: "Nc1ccc(-c2c(O)nc3cc(Cl)cc(Cl)c3c2O)cc1"
  value kind: "IC50"
  experimental value: 210

(1) O=c1[nH]c2ccccc2c(O)c1-c1ccccc1
(2) O=C(O)c1cc(O)c2c(Cl)cc(Cl)cc2n1
Prompt: Parameter check: reported IC50 is higher for which label, 1 or 2 ? Use the label to indicate which entry you chose.
Completion: 1
(1: 7290 nM, 2: 860 nM)
